species: Rattus norvegicus; test: Ratio of binding affinity at [3H]quinuclidinyl benzilate binding on rat brain stem homogenate to [3H]pirenzepine binding on rat brain homogenate
testReadout: Ratio
Hey, just send me the number, nothing else.

{"columns": ["molecule", "reportedMeasurement"],
 "data": [
  ["CCCCCCCCn1nnc(C2=CCCN(C)C2)n1", 2.8],
  ["C#CCn1ncc(C2CCCNC2)n1 (racemic)", 1.5],
  ["CCN1C(=O)CC2(CCN(C)CC2)C1=O", 1],
  ["CCCCCn1nnc(C2=CCCN(C)C2)n1", 4.2],
  ["CC(C)n1nnc(C2=CCCN(C)C2)n1", 3.2]
]}

// Ratio lookup, molecule = CCCCn1nnc(C2=CCCN(C)C2)n1 , result: 5.9

// Ratio lookup, molecule = CCCCn1ncc(C2=CCCN(C)C2)n1 , result: 2.8

====

biological target: Muscarinic acetylcholine receptor; assay: In vitro binding affinity for muscarinic receptor by displacing [3H]oxotremorine-M binding on rat brain homogenate.; format: tissue-based
testReadout: Ki (nM)
Give your result in nM as a bare value.

Completed entries (count: 10):
{"columns": ["compound", "assaySystem", "Ki [nM]"],
 "data": [
  ["CN1CCCC(c2nnn(C)n2)C1 (racemic)", "Muscarinic acetylcholine receptor", 1200],
  ["CCCn1ncc(C2=CCCN(C)C2)n1", "Muscarinic acetylcholine receptor", 2.6],
  ["C=CCn1ncc(C2CCCNC2)n1 (stereo in doubt; (-)-15b)", "Muscarinic acetylcholine receptor", 37],
  ["Cn1nnc(C2=CCCNC2)n1", "Muscarinic acetylcholine receptor", 4.5],
  ["C=CCn1ncc(C2=CCCN(C)C2)n1", "Muscarinic acetylcholine receptor", 4.7],
  ["CCCCCCn1nnc(C2=CCCN(C)C2)n1", "Muscarinic acetylcholine receptor", 52],
  ["CCCN1CCC=C(c2nnn(CC)n2)C1", "Muscarinic acetylcholine receptor", 450],
  ["CCn1nnc(C2=CCCNC2)n1", "Muscarinic acetylcholine receptor", 23],
  ["CCCn1nnc(C2=CCCN(C)C2)n1", "Muscarinic acetylcholine receptor", 2.8],
  ["CC(C)n1nnc(C2=CCCN(C)C2)n1", "Muscarinic acetylcholine receptor", 85]
]}

// Ki lookup, compound = C#CCn1ncc(C2=CCCN(C)C2)n1 , result: 1.6

// Ki lookup, compound = C#CCn1ncc(C2CCCNC2)n1 (stereo in doubt; (-)-15c) , result: 7.8

====

target: Muscarinic acetylcholine receptor M2 (Cavia porcellus); assay: M2 agonist activity estimated by depression of isolated guinea pig left atrium
The following compounds are listed with their measured pEC50 values.
Please express pEC50 as -log10 of the molar concentration.

{"columns": ["compound", "assaySystem", "pEC50"],
 "data": [
  ["C=CCn1ncc(C2CCCNC2)n1 (single isomer, unassigned; (+))", "Muscarinic acetylcholine receptor M2 (Cavia porcellus)", 6.17],
  ["CCN1C(=O)CC2(CCN(C)CC2)C1=O", "Muscarinic acetylcholine receptor M2 (Cavia porcellus)", 6.40],
  ["C=CCn1ncc(C2CCCNC2)n1 (stereo in doubt; (-)-15b)", "Muscarinic acetylcholine receptor M2 (Cavia porcellus)", 6.08],
  ["CCn1ncc(C2=CCCNC2)n1", "Muscarinic acetylcholine receptor M2 (Cavia porcellus)", 6.57]
]}

Moving on to another compound below.
// pEC50 lookup, compound = C=CCn1ncc(C2CCCNC2)n1 (racemic) , result: 5.96
